measurementDescription: Quantitative High-Throughput drug screen in 47 multiple myeloma cell lines against the NCATS MIPE library collection: JJN3_DSMZ cell viability assay (AID 1918966; note: nearly all actives have a fitted effect of over 50% in size)
protocolConditions: JJN3 myeloma cells viability, CellTiter-Glo ATP, 48 h; series mostly up to 45.8 µM
Results filed as inconclusive are left out. Active and inactive are the calls of the source. Calls come from the whole dose curve; as a rule, active = well fitted cell-killing curve with a large enough effect; inconclusive = small, poorly fitted or top-dose-only effect, or effect the other way; inactive = no such curve, though single readings can be large or run the other way.
Outcomes: active, inactive

[
  {
    "molecule": "Cc1ccc(NC(=O)C2(c3ccc4c(c3)OC(F)(F)O4)CC2)nc1-c1cccc(C(=O)O)c1",
    "categoryLabel": "active"
  },
  {
    "molecule": "OCc1ccc(-c2ccc(-c3ccc(CO)s3)o2)s1",
    "categoryLabel": "active"
  },
  {
    "molecule": "C[C@@H]1COC(Nc2ccc3ncnc(Nc4ccc(OCc5nccs5)c(Cl)c4)c3c2)=N1",
    "categoryLabel": "active"
  },
  {
    "molecule": "C[C@@]12O[C@@H](C[C@]1(O)CO)n1c3ccccc3c3c4c(c5c6ccccc6n2c5c31)CNC4=O",
    "categoryLabel": "active"
  },
  {
    "molecule": "COc1cc2ncnc(Nc3ccc(F)c(Cl)c3)c2cc1NC(=O)C=CCN1CCCCC1",
    "categoryLabel": "active"
  },
  {
    "molecule": "CNC(=O)c1ccccc1Nc1nc(Nc2ccc(N3CCOCC3)cc2OC)ncc1Cl",
    "categoryLabel": "active"
  },
  {
    "molecule": "NC(=O)Nc1cc(-c2cccc(F)c2)sc1C(=O)N[C@H]1CCCNC1",
    "categoryLabel": "active"
  },
  {
    "molecule": "CCS(=O)(=O)c1cccc(-c2cc(C(=O)NC3CCN(C)CC3)c(C)c3[nH]c4ncc(C)cc4c23)c1",
    "categoryLabel": "active"
  },
  {
    "molecule": "CC1=C(CO)C(=O)O[C@@H]([C@@H](C)[C@H]2CC[C@H]3[C@@H]4C[C@H]5O[C@]56[C@@H](O)C=CC(=O)[C@]6(C)[C@@H]4CC[C@]23C)C1",
    "categoryLabel": "active"
  },
  {
    "molecule": "N#CCNC(=O)c1ccc(-c2ccnc(Nc3ccc(N4CCOCC4)cc3)n2)cc1",
    "categoryLabel": "active"
  },
  {
    "molecule": "COc1cc(-c2nn(C3CCC(N4CCN(C(C)=O)CC4)CC3)c3ncnc(N)c23)ccc1NC(=O)c1cc2ccccc2n1C (stereo unspecified)",
    "categoryLabel": "active"
  },
  {
    "molecule": "COc1ccc(CC2SC(=O)NC2=O)cc1C(=O)NCc1ccc(C(F)(F)F)cc1 (stereo unspecified)",
    "categoryLabel": "inactive"
  },
  {
    "molecule": "CC(C)c1cc(C(=O)N2Cc3ccc(CN4CCN(C)CC4)cc3C2)c(O)cc1O",
    "categoryLabel": "active"
  },
  {
    "molecule": "O=C(CCCCCCNC(=O)c1cnc(N(c2ccccc2)c2ccccc2)nc1)NO",
    "categoryLabel": "active"
  },
  {
    "molecule": "O=C(CCCCCCC(=O)Nc1ccc([C@H]2O[C@@H](CSc3nc(-c4ccccc4)c(-c4ccccc4)o3)C[C@@H](c3ccc(CO)cc3)O2)cc1)NO",
    "categoryLabel": "active"
  },
  {
    "molecule": "C=CC(=O)Nc1cc2c(Nc3ccc(F)c(Cl)c3)ncnc2cc1OCCCN1CCOCC1",
    "categoryLabel": "active"
  },
  {
    "molecule": "CNC(=O)c1ccc(N2C(=S)N(c3cnc(C#N)c(C(F)(F)F)c3)C(=O)C23CCC3)cc1F",
    "categoryLabel": "active"
  },
  {
    "molecule": "CC1COC2(CCN(c3nc(=O)c4cc(C(F)(F)F)cc([N+](=O)[O-])c4s3)CC2)O1 (stereo unspecified)",
    "categoryLabel": "inactive"
  },
  {
    "molecule": "Cc1c(CN2CCN(S(C)(=O)=O)CC2)sc2c(N3CCOCC3)nc(-c3cnc(N)nc3)nc12",
    "categoryLabel": "active"
  },
  {
    "molecule": "CCN1CCN(CC(=O)Nc2ccc(-c3cccc4c(=O)cc(N5CCOCC5)oc34)c3sc4ccccc4c23)CC1",
    "categoryLabel": "active"
  },
  {
    "molecule": "Nc1ncnc2c1c(-c1cnc3[nH]ccc3c1)nn2C1CCCC1",
    "categoryLabel": "active"
  },
  {
    "molecule": "Cc1coc2c1C(=O)C(=O)c1c-2ccc2c1CCCC2(C)C",
    "categoryLabel": "active"
  },
  {
    "molecule": "CN1CCN(c2ccc3nc(-c4c(N)c5c(F)cccc5[nH]c4=O)[nH]c3c2)CC1",
    "categoryLabel": "active"
  },
  {
    "molecule": "O=C(Cc1ccc(-c2ccc(OCCN3CCOCC3)cc2)cn1)NCc1ccccc1",
    "categoryLabel": "active"
  },
  {
    "molecule": "Cn1c(=O)n(-c2ccc(C(C)(C)C#N)cc2)c2c3cc(-c4cnc5ccccc5c4)ccc3ncc21",
    "categoryLabel": "active"
  },
  {
    "molecule": "O=C(NC1CCNCC1)c1[nH]ncc1NC(=O)c1c(Cl)cccc1Cl",
    "categoryLabel": "active"
  },
  {
    "molecule": "Cc1cc(Nc2cc(N3CCN(C)CC3)nc(Sc3ccc(NC(=O)C4CC4)cc3)n2)n[nH]1",
    "categoryLabel": "active"
  },
  {
    "molecule": "CC(C)c1ccc(Cn2ccc3c4c(N)nc(NC5CC5)nc4ccc32)cc1",
    "categoryLabel": "active"
  },
  {
    "molecule": "Cc1cc(Nc2ncnc3ccc(-c4ccc(CNCCS(C)(=O)=O)o4)cc23)ccc1Oc1ccn2ncnc2c1",
    "categoryLabel": "active"
  },
  {
    "molecule": "NC(=O)c1c(OCc2c(F)cc(Br)cc2F)nsc1NC(=O)NCCCCN1CCCC1",
    "categoryLabel": "active"
  },
  {
    "molecule": "CC1(C)O[C@@H]2C[C@@H]3[C@H]4C[C@@H](F)C5=CC(=O)C=C[C@]5(C)[C@@]4(F)[C@@H](O)C[C@]3(C)[C@]2(C(=O)CO)O1",
    "categoryLabel": "inactive"
  },
  {
    "molecule": "CC(C)c1ccccc1Cc1cc(C(=O)Nc2ccc(S(=O)(=O)c3ccccc3C(C)(C)C)cc2)c(O)c(O)c1O",
    "categoryLabel": "active"
  },
  {
    "molecule": "Cn1cc(-c2ccncc2)c(-c2ccc(OCc3ccc4ccccc4n3)cc2)n1",
    "categoryLabel": "active"
  },
  {
    "molecule": "O=C(C=Cc1cccnc1)NCCCCC1CCN(C(=O)c2ccccc2)CC1",
    "categoryLabel": "active"
  },
  {
    "molecule": "O=C(C=Cc1c(C(=O)O)[nH]c2cc(Cl)cc(Cl)c12)Nc1ccccc1",
    "categoryLabel": "inactive"
  },
  {
    "molecule": "CN(C)Cc1c(C(=O)NCCOc2ccc(C(=O)NO)cc2)oc2ccccc12",
    "categoryLabel": "active"
  }
]
